Target: Receptor-interacting serine/threonine-protein kinase 1 (Homo sapiens, UniProt Q13546)
Sequence (Q13546 whole entry): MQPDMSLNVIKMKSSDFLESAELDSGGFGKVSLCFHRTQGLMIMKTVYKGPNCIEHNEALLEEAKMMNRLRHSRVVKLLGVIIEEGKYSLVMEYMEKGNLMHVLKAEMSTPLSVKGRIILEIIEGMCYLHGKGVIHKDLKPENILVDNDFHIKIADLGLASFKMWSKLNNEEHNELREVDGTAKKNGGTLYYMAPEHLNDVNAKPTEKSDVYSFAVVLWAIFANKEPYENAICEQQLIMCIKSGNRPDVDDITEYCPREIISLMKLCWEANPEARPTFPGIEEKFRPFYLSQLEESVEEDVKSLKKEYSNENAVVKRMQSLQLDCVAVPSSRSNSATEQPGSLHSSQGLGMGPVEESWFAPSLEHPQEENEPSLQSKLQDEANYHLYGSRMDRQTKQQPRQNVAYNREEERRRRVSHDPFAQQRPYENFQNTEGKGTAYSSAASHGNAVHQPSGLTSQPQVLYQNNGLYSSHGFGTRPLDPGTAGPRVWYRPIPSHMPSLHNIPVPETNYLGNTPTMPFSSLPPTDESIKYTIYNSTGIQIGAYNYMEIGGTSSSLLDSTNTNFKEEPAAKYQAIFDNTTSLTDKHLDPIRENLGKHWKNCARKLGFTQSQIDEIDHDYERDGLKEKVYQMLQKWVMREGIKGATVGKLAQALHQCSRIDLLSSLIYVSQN
Experiment: Inhibition of recombinant human RIPK1 kinase domain (8 to 322 residues) using myelin basic protein as substrate measured after 120 mins by [gamma-32P]ATP based scintillation counting method
pIC50: −log10 of the molar value.
recorded.metric: pIC50

A = CCCCNc1nc2cc([N+](=O)[O-])ccc2s1
B = CCCCNc1nc2ccc([N+](=O)[O-])cc2[nH]1
Query: Which one would you say has the larger pIC50 value: A , or B ? Respond with the label that goes with your answer.
Response: A

###

Target: UniProt:Q96GD4
Sequence (Q96GD4 whole entry): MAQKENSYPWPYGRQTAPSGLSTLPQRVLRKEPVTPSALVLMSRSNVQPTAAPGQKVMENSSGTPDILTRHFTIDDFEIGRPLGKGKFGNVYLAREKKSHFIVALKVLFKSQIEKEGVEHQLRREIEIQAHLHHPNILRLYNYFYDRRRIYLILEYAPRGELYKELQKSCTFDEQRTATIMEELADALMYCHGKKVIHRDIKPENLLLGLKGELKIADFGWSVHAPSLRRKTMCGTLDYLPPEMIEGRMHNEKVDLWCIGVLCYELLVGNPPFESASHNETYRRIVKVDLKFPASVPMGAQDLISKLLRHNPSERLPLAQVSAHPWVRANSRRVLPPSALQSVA
Test: Inhibition of recombinant human AURKB expressed in baculovirus infected Sf9 insect cells using myelin basic protein as substrate by ADP-Glo assay
pIC50: −log10 of the molar value.
recorded.metric: pIC50

CCCCNc1nc2cc([N+](=O)[O-])ccc2s1    < 5.00

Would you kindly look at the next entry?
Query: Determine from records and report pIC50 for CCCCNc1nc2ccc([N+](=O)[O-])cc2[nH]1
Response: < 5.00

###

The entries below come with measured pIC50 values attached.
Target: Tyrosine-protein kinase ABL1 (Homo sapiens)
Sequence (P00519 whole entry, the tested form may be a part): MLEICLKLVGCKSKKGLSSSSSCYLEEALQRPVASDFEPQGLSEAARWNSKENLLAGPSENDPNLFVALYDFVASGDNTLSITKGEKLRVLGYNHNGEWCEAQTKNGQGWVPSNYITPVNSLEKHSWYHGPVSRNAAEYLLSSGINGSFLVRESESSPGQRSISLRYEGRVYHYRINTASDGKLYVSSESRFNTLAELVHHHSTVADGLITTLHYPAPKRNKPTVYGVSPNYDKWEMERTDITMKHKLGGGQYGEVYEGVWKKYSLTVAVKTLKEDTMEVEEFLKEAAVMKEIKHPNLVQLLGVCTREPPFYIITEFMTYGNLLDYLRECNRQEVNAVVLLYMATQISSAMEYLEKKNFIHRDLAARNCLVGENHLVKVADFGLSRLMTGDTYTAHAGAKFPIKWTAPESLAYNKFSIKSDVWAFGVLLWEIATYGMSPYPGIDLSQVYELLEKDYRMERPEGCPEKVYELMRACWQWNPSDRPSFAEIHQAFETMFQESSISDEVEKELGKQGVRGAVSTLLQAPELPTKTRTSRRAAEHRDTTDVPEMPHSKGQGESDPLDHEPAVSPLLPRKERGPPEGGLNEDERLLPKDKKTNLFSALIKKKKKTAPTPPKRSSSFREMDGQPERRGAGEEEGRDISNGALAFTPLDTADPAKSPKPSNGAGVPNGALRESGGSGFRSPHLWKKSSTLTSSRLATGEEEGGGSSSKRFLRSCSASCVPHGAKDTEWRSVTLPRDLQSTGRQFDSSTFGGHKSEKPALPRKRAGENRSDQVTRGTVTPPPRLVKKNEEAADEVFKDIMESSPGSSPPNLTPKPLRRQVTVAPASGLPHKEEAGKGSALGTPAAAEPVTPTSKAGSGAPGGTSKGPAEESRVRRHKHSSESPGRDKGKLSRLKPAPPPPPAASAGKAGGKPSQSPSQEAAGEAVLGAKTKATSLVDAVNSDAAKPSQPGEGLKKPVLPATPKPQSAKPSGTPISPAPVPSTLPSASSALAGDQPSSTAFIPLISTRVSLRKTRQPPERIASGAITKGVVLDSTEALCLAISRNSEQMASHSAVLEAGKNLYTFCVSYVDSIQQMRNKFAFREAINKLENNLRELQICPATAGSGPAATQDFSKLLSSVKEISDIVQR
Assay: Inhibition of recombinant human ABL1 (118 to 535 residues) expressed in baculovirus infected Sf9 insect cells using EAIYAAPFAKKK as substrate by ADP-glo assay
pIC50: −log10 of the molar value.

CCCCNc1nc2cc([N+](=O)[O-])ccc2s1    < 5.00

Moving on to another compound below.
Query: For CCCCNc1nc2ccc([N+](=O)[O-])cc2[nH]1 , write its pIC50.
Response: < 5.00

###

# IC50 per entry
Target: Serine/threonine-protein kinase pim-1 (Homo sapiens, UniProt P11309)
Sequence (P11309 whole entry): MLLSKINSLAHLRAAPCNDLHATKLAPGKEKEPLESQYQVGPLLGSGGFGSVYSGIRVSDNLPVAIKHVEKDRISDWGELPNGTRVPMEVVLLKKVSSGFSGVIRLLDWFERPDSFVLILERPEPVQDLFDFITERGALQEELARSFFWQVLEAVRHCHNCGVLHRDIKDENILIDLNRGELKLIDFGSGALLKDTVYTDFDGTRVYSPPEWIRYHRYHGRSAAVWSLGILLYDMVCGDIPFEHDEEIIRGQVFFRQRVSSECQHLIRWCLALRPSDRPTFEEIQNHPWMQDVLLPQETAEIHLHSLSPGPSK
Assay: Inhibition of recombinant human PIM1 expressed in bacterial expression system using histone H1 as substrate by ADP-glo assay

CCCCNc1nc2cc([N+](=O)[O-])ccc2s1    > 10 µM

Below: the item to evaluate.
Query: Report IC50 under test system Serine/threonine-protein kinase pim-1 (Homo sapiens, UniProt P11309) for CCCCNc1nc2ccc([N+](=O)[O-])cc2[nH]1 .
Response: > 10 µM
